Each recorded value in this set is attributed to ChEMBL document CHEMBL5260820.

pKi values recorded for UniProtKB Q9QYN8
Sequence (Q9QYN8 whole entry): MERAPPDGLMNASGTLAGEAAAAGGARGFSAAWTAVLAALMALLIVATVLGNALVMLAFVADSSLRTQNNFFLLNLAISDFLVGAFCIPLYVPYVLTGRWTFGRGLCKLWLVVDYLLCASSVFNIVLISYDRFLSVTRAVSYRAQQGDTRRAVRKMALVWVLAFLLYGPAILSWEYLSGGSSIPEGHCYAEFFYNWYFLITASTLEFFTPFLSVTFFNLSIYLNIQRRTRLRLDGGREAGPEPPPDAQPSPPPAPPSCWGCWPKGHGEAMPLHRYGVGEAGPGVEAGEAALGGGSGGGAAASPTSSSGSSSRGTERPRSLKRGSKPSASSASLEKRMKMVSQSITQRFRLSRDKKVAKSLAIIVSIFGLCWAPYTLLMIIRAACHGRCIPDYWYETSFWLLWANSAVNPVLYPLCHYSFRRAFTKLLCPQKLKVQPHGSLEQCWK
The meaning of pKi here: minus log10 of the concentration in molar units.

Give UniProtKB Q9QYN8 pKi for "C[C@H]1CCCN1CCCOc1ccc2c(c1)CC[C@@H]1[C@@H]2CC[C@]2(C)[C@@H](N3CCCC3)CC[C@@H]12" 8.25

Give UniProtKB Q9QYN8 pKi for "C[C@]12CC[C@@H]3c4ccc(OCCCN5CCC(O)CC5)cc4CC[C@H]3[C@@H]1CC[C@@H]2N1CCCC1" 7.61

Give UniProtKB Q9QYN8 pKi for "C[C@]12CC[C@H]3[C@@H](CC=C4C[C@@H](OCCCN5CCCC5)CC[C@@]43C)[C@@H]1CC[C@@H]2N1CCCC1" 7.99

Further cases:
Give UniProtKB Q9QYN8 pKi for "C[C@]12CC[C@@H]3c4ccc(OCc5ccccn5)cc4CC[C@H]3[C@@H]1CC[C@@H]2N1CCCC1" 8.12
